biological target: FGFR4 (Homo sapiens (Human), UniProt P22455); test: FGFR Enzymatic Assay (FRET peptide phosphorylation), FGFR4; details: read-out: FGFR4 IC50; pre-incubated for 4 hours
Sequence (P22455 22-802): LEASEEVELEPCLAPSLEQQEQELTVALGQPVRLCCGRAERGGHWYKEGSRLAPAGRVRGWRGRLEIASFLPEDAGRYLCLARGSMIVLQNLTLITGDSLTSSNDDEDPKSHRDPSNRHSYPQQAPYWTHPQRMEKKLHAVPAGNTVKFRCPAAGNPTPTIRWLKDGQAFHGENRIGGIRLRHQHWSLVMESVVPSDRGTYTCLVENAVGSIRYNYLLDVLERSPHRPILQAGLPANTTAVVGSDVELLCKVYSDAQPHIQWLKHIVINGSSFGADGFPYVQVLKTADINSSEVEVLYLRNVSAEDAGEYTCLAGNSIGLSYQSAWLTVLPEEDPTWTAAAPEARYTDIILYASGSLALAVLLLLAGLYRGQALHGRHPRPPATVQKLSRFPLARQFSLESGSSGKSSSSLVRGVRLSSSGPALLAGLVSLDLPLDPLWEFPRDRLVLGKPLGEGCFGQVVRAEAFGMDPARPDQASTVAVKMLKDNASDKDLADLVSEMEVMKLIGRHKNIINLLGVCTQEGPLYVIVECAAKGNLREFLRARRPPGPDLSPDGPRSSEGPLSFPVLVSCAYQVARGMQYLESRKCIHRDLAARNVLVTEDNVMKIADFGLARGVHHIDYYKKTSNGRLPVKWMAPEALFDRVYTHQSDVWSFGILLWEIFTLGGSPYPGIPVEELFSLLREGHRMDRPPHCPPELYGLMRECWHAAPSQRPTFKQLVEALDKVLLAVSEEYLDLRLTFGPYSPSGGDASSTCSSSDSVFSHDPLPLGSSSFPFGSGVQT
pIC50: −log10 of the molar value.
The following molecules are shown together with reported pIC50 values.
quantity: pIC50

[
  {
    "molecule": "C=CC(=O)N(C)c1cc2c(cn1)CN(c1c(F)c(OC)cc(OC)c1F)C(=O)C21CC1 [Example 2]",
    "observedResult": "> 8.00"
  },
  {
    "molecule": "C=CC(=O)Nc1ccc(N2CCN(C)CC2)cc1Nc1cc2c(cn1)CN(c1c(F)c(OC)cc(OC)c1F)C(=O)C21CC1 [Example 11]",
    "observedResult": "> 8.00"
  },
  {
    "molecule": "C=CC(=O)Nc1ccccc1Nc1cc2c(cn1)CN(c1c(F)c(OC)cc(OC)c1F)C(=O)C2(C)C [Example 6]",
    "observedResult": "> 8.00"
  },
  {
    "molecule": "C=CC(=O)Nc1ccccc1Nc1cc2c(cn1)CN(c1c(F)c(OC)cc(OC)c1F)C(=O)C21CCOCC1 [Example 8]",
    "observedResult": "> 8.00"
  },
  {
    "molecule": "C=CC(=O)Nc1ccc(N2CCOCC2)cc1Nc1cc2c(cn1)CN(c1c(F)c(OC)cc(OC)c1F)C(=O)C21CC1 [Example 10]",
    "observedResult": "> 8.00"
  }
]

###

biological target: FGFR2 (Homo sapiens (Human)); assay: FGFR Enzymatic Assay (FRET peptide phosphorylation), FGFR2
pIC50: −log10 of the molar value.

[
  {
    "compound": "C=CC(=O)N(C)c1cc2c(cn1)CN(c1c(F)c(OC)cc(OC)c1F)C(=O)C21CC1",
    "pIC50": "6.70 to 7.52"
  },
  {
    "compound": "C=CC(=O)NC1CCCCC1Nc1cc2c(cn1)CN(c1c(F)c(OC)cc(OC)c1F)C(=O)C21CC1 (racemic)",
    "pIC50": "< 6.70"
  },
  {
    "compound": "C=CC(=O)Nc1ccc(N2CCN(C)CC2)cc1Nc1cc2c(cn1)CN(c1c(F)c(OC)cc(OC)c1F)C(=O)C21CC1",
    "pIC50": "6.70 to 7.52"
  }
]

###

The following compounds are shown together with reported FGFR2/FGFR4 values.
target: FGFR2 (Homo sapiens (Human), UniProt P21802); assay: FGFR Enzymatic Assay (FRET peptide phosphorylation), FGFR2; details: IC50 ratio, pre-incubated for 4 hours
Sequence (P21802 22-821): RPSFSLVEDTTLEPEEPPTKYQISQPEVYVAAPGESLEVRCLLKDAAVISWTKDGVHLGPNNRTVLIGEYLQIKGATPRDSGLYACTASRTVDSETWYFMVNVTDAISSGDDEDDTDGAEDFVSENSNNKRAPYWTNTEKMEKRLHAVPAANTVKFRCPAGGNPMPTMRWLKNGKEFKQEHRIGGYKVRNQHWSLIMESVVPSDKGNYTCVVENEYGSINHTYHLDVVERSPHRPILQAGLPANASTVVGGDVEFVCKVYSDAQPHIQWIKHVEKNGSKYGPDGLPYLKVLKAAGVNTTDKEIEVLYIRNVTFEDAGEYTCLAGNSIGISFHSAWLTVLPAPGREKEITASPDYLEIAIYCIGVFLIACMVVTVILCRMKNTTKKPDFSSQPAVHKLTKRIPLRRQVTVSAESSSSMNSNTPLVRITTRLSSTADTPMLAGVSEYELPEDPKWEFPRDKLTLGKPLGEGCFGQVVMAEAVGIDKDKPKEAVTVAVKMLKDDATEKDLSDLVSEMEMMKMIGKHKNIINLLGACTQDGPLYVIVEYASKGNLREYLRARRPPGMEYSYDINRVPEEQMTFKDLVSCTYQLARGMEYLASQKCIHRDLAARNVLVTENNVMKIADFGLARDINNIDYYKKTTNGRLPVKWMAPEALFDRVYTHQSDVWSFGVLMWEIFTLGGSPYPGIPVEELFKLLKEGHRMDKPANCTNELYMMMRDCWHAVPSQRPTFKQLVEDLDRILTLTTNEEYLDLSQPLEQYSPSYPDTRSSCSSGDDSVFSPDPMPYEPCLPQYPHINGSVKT
quantity: FGFR2/FGFR4

[
  {
    "structureSmilesString": "C=CC(=O)Nc1cccc(C)c1Nc1cc2c(cn1)CN(c1c(F)c(OC)cc(OC)c1F)C(=O)C21CC1",
    "observedResult": ">100"
  },
  {
    "structureSmilesString": "C=CC(=O)Nc1ccccc1Nc1cc2c(cn1)CN(c1c(F)c(OC)cc(OC)c1F)C(=O)C21CC1",
    "observedResult": ">100"
  },
  {
    "structureSmilesString": "C=CC(=O)N(C)c1cc2c(cn1)CN(c1c(F)c(OC)cc(OC)c1F)C(=O)C21CC1",
    "observedResult": ">5"
  },
  {
    "structureSmilesString": "C=CC(=O)N[C@H]1CCC[C@H]1Oc1ncc2c(n1)C1(CC1)C(=O)N(c1c(F)c(OC)cc(OC)c1F)C2",
    "observedResult": ">100"
  },
  {
    "structureSmilesString": "C=CC(=O)Nc1ccccc1Nc1cc2c(cn1)CN(c1c(F)c(OC)cc(OC)c1F)C(=O)C21CCCC1",
    "observedResult": ">100"
  },
  {
    "structureSmilesString": "C=CC(=O)Nc1ccc(N2CCOCC2)cc1Nc1cc2c(cn1)CN(c1c(F)c(OC)cc(OC)c1F)C(=O)C21CC1",
    "observedResult": ">100"
  }
]

Where do these numbers come from? They come from patent US10851105B2.
